Where do the numbers come from? From PubChem BioAssay AID248.

# System: L1210 leukemia ip in BDF1 mice, survival T/C
# assay_text: NCI In Vivo Anticancer Drug Screen. Data for tumor model L1210 Leukemia (intraperitoneal) in B6D2F1 (BDF1) mice
# condition: endpoint: mean survival time; dose: 200.0 mg/kg/injection; schedule: Q04DX002 (ip); vehicle: saline; higher = longer survival
# Experimental: The antitumor activity of compounds was measured in mice bearing transplantable tumors. Survival or tumor size were measured and the results are expressed as the measurement made in the treated group (T) divided by the measurement made in the vehicle treated control group (C). The tumor model used in this assay is L1210 Leukemia (intraperitoneal) in B6D2F1 (BDF1) mice
Toxic doses and inconclusive results are not listed.
measurement_name: T/C

C[n+]1ccc(/C(N)=N/O)cc1 ... 107 % of control
COc1cc2cc3c4cc(OC)c(OC)cc4cc[n+]3c(C)c2cc1OC (tested in a mixture with another compound) ... 105 % of control
Nc1cc(=O)[nH]c(=S)[nH]1 ... 92 % of control
O=CNCC(=O)O ... 95 % of control
c1ccc(P(CCP(CCP(c2ccccc2)c2ccccc2)c2ccccc2)CCP(c2ccccc2)c2ccccc2)cc1 (configuration not stated) ... 96 % of control
CN(C)CCCCNc1ccc(NCCCCN(C)C)c2c1C(=O)c1c(O)ccc(O)c1C2=O ... 105 % of control
CNc1ccccc1C(=O)N/N=C/c1ccc(OC)cc1 ... 99 % of control
CSc1nc(N)n(C)n1 ... 104 % of control
O=S(=O)(O)N(O)S(=O)(=O)O ... 97 % of control
Cn1c(=O)c2c(ncn2CCSCC2=NS(=O)(=O)c3cc(S(N)(=O)=O)c(C(F)(F)F)cc3N2)n(C)c1=O ... 94 % of control
Nc1ccc([As](=O)(O)O)cc1 ... 102 % of control
O=C1OC(C(O)C(O)C(O)CO)C(O)C1O (configuration not stated) ... 96 % of control

----------
# System: L1210 leukemia ip in BDF1 mice, survival T/C
# assay_text: NCI In Vivo Anticancer Drug Screen. Data for tumor model L1210 Leukemia (intraperitoneal) in B6D2F1 (BDF1) mice
# condition: endpoint: mean survival time; dose: 400.0 mg/kg/injection; schedule: Q01DX001 (ip); vehicle: saline; higher = longer survival
Toxic doses and inconclusive results are not listed.
measurement_name: T/C

O=S(=O)(O)c1ccc(-c2nc3ccccc3[nH]2)cc1 ... 95 % of control
CC(C)(C)c1cc([N+](=O)[O-])cc(C(C)(C)C)c1O ... 93 % of control
Nc1ccc(S(=O)(=O)O)c2ccccc12 ... 94 % of control
C1CCC2CC3CCCCC3CC2C1 (stereo unspecified) ... 102 % of control
O=NN(Cc1ccccc1)C(c1ccccc1)S(=O)(=O)O (stereo unspecified) ... 93 % of control
CC(=O)OCC1OC(N2CCc3ccccc32)C(OC(C)=O)C(OC(C)=O)C1OC(C)=O (stereo unspecified) ... 96 % of control

----------
# Test system: L1210 leukemia ip in BDF1 mice, survival T/C
# assay_text: NCI In Vivo Anticancer Drug Screen. Data for tumor model L1210 Leukemia (intraperitoneal) in B6D2F1 (BDF1) mice
# condition: endpoint: mean survival time; dose: 50.0 mg/kg/injection; schedule: Q01DX009 (ip); vehicle: saline with Tween-80; higher = longer survival
Toxic doses and inconclusive results are not listed.
measurement_name: T/C

O=[N+]([O-])c1ccc2nc3c(nc2c1)-c1cccc2cccc-3c12 ... 91 % of control
CN1CCCC1CCNc1nc(C(Cl)(Cl)Cl)nc2ccc(Cl)cc12 (stereo not drawn) ... 96 % of control
O=c1oc(-c2cccc([N+](=O)[O-])c2)nc2ccccc12 ... 97 % of control
Cc1ccc(C)c(C(=O)CCC(=O)O)c1 ... 96 % of control
O=C(Nc1ccccc1C(=O)c1ccccc1)c1ccc(Cl)cc1Cl ... 105 % of control
FC(F)c1nc2nc(Cl)c(Cl)nc2[nH]1 ... 105 % of control
BrCC1CCCCO1 (stereo not drawn) ... 99 % of control
Cc1nc2c(O)ccc(O)c2nc1C ... 94 % of control
CS(=O)(=O)c1nc(Cl)nc(C(Cl)(Cl)Cl)c1Cl ... 95 % of control
CC(C)(C(=O)Oc1ccccc1)C(=O)Oc1ccccc1 ... 95 % of control
CC(C)=CCC/C(C)=C/C=C1C(=O)NC(=S)NC1=O ... 117 % of control
COc1cccc(C2CCCCC2O)c1 (stereo not drawn) ... 90 % of control
Cc1c(C)c(C)c(CSC(N)=Nc2ccccc2)c(C)c1C ... 98 % of control
